target: ACSS2 (Homo sapiens, UniProt Q9NR19); assay: biochemical;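 further: Cell-free human ACSS2 enzyme reaction with acetate, CoA and ATP, 90 min at 37 C, coupled to pyrophosphatase, phosphate release detected by Biomol Green absorbance at 620 nm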
Sequence (Q9NR19 whole entry): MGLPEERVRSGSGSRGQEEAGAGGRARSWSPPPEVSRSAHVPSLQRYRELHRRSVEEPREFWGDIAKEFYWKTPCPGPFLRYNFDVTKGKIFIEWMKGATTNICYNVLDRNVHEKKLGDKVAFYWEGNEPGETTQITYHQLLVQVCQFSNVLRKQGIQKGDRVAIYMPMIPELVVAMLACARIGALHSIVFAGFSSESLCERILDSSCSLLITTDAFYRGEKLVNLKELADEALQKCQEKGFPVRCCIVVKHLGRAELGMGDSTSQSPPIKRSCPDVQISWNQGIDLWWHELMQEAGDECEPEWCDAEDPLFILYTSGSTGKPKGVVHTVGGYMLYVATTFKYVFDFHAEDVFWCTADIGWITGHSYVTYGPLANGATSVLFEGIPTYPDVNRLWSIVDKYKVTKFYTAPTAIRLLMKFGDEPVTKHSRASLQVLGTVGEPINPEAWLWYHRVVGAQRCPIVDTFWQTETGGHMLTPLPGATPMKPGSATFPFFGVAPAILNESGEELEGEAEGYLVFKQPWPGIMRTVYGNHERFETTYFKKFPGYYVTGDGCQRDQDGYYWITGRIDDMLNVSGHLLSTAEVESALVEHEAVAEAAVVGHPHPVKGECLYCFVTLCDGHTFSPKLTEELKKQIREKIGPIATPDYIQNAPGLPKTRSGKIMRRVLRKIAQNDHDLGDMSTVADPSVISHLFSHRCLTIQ
pIC50: −log10 of the molar value.

[
  {
    "molecule": "CC1=NN(c2ccc(OC(C)C)cc2)C(=O)C1C(=O)Nc1cccc(C(C)(F)F)c1 (centres unmarked)",
    "pIC50": "8.22 to 11.00"
  },
  {
    "molecule": "CCc1csc(NC(=O)C2C(=O)N(c3ccccc3)N=C2C)c1 (centres unmarked)",
    "pIC50": "6.00 to 7.00"
  },
  {
    "molecule": "CCc1cccc(NC(=O)C2C(=O)N(c3ccc(NC(=O)N(C)C)cc3)N=C2C)c1 (centres unmarked)",
    "pIC50": "6.00 to 7.00"
  },
  {
    "molecule": "CC1=NN(c2cccc(-c3nccn3C)c2)C(=O)C1C(=O)Nc1cccc(C(C)(F)F)c1 (centres unmarked)",
    "pIC50": "8.22 to 11.00"
  },
  {
    "molecule": "COc1ccc(N2N=C(C)C(C(=O)Nc3cccc(C4COC4)c3)C2=O)cc1 (centres unmarked)",
    "pIC50": "7.00 to 8.22"
  },
  {
    "molecule": "CCc1cccc(NC(=O)C2C(=O)N(c3ccc4cccnc4c3)N=C2C)c1 (centres unmarked)",
    "pIC50": "7.00 to 8.22"
  },
  {
    "molecule": "CCc1cscc1NC(=O)C1C(=O)N(c2ccccc2)N=C1C (centres unmarked)",
    "pIC50": "6.00 to 7.00"
  },
  {
    "molecule": "CCOc1ccc(N2N=C(C)C(C(=O)Nc3cccc(CC)c3)C2=O)cc1 (centres unmarked)",
    "pIC50": "4.00 to 6.00"
  }
]
